This section presents molecules with their documented pEC50 values.
# Target Entity: CXCR7 (Homo sapiens (Human), UniProt P25106)
# Sequence (P25106 whole entry): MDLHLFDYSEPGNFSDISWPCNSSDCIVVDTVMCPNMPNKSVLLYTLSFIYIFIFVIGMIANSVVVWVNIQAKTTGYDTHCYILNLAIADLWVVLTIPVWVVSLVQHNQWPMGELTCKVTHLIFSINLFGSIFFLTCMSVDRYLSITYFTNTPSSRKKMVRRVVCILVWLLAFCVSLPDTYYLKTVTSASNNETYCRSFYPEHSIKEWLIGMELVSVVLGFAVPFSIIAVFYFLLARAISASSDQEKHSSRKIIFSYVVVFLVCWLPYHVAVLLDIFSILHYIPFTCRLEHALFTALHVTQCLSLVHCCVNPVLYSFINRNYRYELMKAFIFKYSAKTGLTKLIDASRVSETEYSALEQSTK
# Sequence (P32121 whole entry partner): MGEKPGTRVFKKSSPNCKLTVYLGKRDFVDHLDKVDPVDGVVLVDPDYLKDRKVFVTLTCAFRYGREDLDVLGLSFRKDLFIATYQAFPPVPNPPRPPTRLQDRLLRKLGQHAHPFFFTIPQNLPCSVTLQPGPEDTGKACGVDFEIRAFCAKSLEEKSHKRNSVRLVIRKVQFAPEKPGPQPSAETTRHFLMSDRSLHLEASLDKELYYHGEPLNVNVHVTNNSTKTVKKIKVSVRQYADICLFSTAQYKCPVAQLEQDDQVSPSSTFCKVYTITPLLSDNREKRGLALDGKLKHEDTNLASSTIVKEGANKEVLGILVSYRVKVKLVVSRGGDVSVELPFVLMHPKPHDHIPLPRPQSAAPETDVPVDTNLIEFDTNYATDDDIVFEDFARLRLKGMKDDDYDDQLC
# Experimental Details: PathHunter CHO-K1 CXCR7 b-arrestin assay (agonistic activity)
# Condition Set: PathHunter CHO-K1 CXCR7 b-arrestin cell line
// field semantics: pEC50 = negative decimal log of concentration (mol/L)

Molecule: CC(C)(C)NC(=O)C1CCN(Cc2cccc(NC(=O)/C=C/c3ccccc3)c2)CC1 [Example 1.337]
pEC50: 8.10
//
Molecule: O=C(Nc1cccc(CN2CCC(C(=O)NC3CCCCC3)CC2)c1)c1ccccc1 [Example 1.014]
pEC50: 8.52
//
Molecule: CC(C)(C)NC(=O)C1CCN(Cc2cccc(NC(=O)c3ccccc3C(F)(F)F)c2)CC1 [Example 1.239]
pEC50: 7.77
//
Molecule: Cc1c(Cl)cccc1C(=O)Nc1cccc(CN2CCC(C(=O)NC3CCCCC3)CC2)c1 [Example 1.120]
pEC50: 7.46
//
Molecule: O=C(Nc1cccc(CN2CCC(C(=O)NC3CC3)CC2)c1)c1cc(Cl)ccn1 [Example 1.200]
pEC50: 7.80

As a next step, examine the molecule that follows.
Inquiry: Please state recorded pEC50 (tested on CXCR7 (Homo sapiens (Human), UniProt P25106)) of O=C(Nc1cccc(CN2CCC(C(=O)NC3CCCCC3)CC2)c1)c1cncc(F)c1 [Example 1.056]
Reply text: 8.15

* * *

# Target Entity: UniProt:P25106
# Experimental Details: PathHunter CHO-K1 CXCR7 b-arrestin assay (agonistic activity)
# Condition Set: PathHunter CHO-K1 CXCR7 b-arrestin cell line
This section presents compounds with their documented EC50 values.
Answer with a number only, understood to be in nM.

Compound: O=C(Nc1cccc(CN2CCC(C(=O)NC3CCCCC3)CC2)c1)c1ccc(C(F)(F)F)cc1F
Unit: nM
Readout Value: 8

Compound: Cc1cc(CN2CCC(C(=O)NC(C)(C)C)CC2)cc(NC(=O)c2ccc(F)cc2)c1
Unit: nM
Readout Value: 13

Compound: C=CC(=O)Nc1cccc(CN2CCC(C(=O)NC(C)(C)C)CC2)c1
Unit: nM
Readout Value: 83

Inquiry: Look up EC50 for this compound: CC(c1cccc(NC(=O)c2ccc(C(F)(F)F)nc2)c1)N1CCC(C(=O)NC2CCCCC2)CC1 (racemic)
Reply text: 98

Inquiry: Look up EC50 for this compound: CC(C)(C)NC(=O)C1CCN(Cc2cccc(NC(=O)Cc3cc(F)c(Cl)cc3Cl)c2)CC1
Reply text: 4

Inquiry: Look up EC50 for this compound: Cc1cncc(C(=O)Nc2cccc(CN3CCC(C(=O)NC4CCCCC4)CC3)c2)c1 [Example 6.001]
Reply text: 5

* * *

# Target Entity: CXCR7 (Homo sapiens (Human))
# Experimental Details: PathHunter CHO-K1 CXCR7 b-arrestin assay (agonistic activity)
# Assay type: cell-based
# Condition Set: PathHunter CHO-K1 CXCR7 b-arrestin cell line
This section presents compounds with their documented EC50 values.
# output: number + unit

Previously resolved entries follow.
Compound: Cc1cncc(C(=O)Nc2cccc(CN3CCCC(C(=O)NC(C)(C)C)CC3)c2)c1 (racemic) [Example 1.290]
Target Entity: CXCR7 (Homo sapiens (Human))
EC50: 49 nM
//
Compound: Cc1ncccc1C(=O)Nc1cccc(CN2CCC(C(=O)NC3CCCCC3)CC2)c1 [Example 1.065]
Target Entity: CXCR7 (Homo sapiens (Human))
EC50: 59 nM

As a next step, examine the compound that follows.
Inquiry: Look up EC50 for this compound: O=C(Nc1ccc(Cl)c(CN2CCC(C(=O)NC3CCCC3)CC2)c1)c1ccc(F)cc1 [Example 1.219]
Reply text: 0.9 nM

* * *

# Target Entity: UniProt P25106
# Experimental Details: PathHunter CHO-K1 CXCR7 b-arrestin assay (agonistic activity)
# Condition Set: PathHunter CHO-K1 CXCR7 b-arrestin cell line
pEC50: −log10 of the molar value.
Rule: pEC50 under 8 gives f, otherwise t.

Observe how each entry below is paired with its result.
Molecule: CC(C)(C)NC(=O)C1CCN(Cc2cccc(NC(=O)Cc3cccc(Cl)c3Cl)c2)CC1 [Example 1.246]
Category Label: t
//
Molecule: Cc1ccnc(C(=O)Nc2cccc(C(C)N3CCC(C(=O)NC4CCCCC4)CC3)c2)c1 (racemic) [Example 1.191]
Category Label: f
//
Molecule: O=C(Nc1cccc(CN2CCC(C(=O)NC3CCCCC3)CC2)c1)c1coc2ccccc12 [Example 1.028]
Category Label: t

Inquiry: Item CC(c1cccc(NC(=O)c2cnc(N3CCCC3)s2)c1)N1CCC(C(=O)NC2CCCCC2)CC1 (racemic) [Example 1.194] with pEC50 of 8 or above?
Reply text: f

Inquiry: Item O=C(Nc1cccc(CN2CCC(C(=O)NC3CCCCC3)CC2)c1)c1cccc2ccncc12 [Example 1.010] with pEC50 of 8 or above?
Reply text: f

Inquiry: Item CCC(C)(C)NC(=O)C1CCN(Cc2cccc(NC(=O)c3ccc(C(F)(F)F)cn3)c2)CC1 [Example 1.341] with pEC50 of 8 or above?
Reply text: t

Inquiry: Item Cc1cc(C(=O)Nc2cccc(CN3CCC(C(=O)NC4CCCCC4)CC3)c2)nc(N(C)C)n1 [Example 1.088] with pEC50 of 8 or above?
Reply text: f

Inquiry: Item Cc1ncncc1C(=O)Nc1cccc(CN2CCC(C(=O)NC3CCCCC3)CC2)c1 [Example 1.086] with pEC50 of 8 or above?
Reply text: f

* * *

# Target Entity: CXCR7 (Homo sapiens (Human))
# Experimental Details: PathHunter CHO-K1 CXCR7 b-arrestin assay (agonistic activity)
# Condition Set: PathHunter CHO-K1 CXCR7 b-arrestin cell line
This section presents compounds with their documented pEC50 values.
// field semantics: pEC50 = negative decimal log of concentration (mol/L)

Previously resolved entries follow.
Smiles Record: O=C(Nc1cccc(CN2CCC(C(=O)NC3CCCCC3)CC2)c1)c1ccncn1
Target Entity: CXCR7 (Homo sapiens (Human))
Readout Value: 8.70
--
Smiles Record: O=C(Nc1ccc(Cl)c(CN2CCC(C(=O)NC3CCCC3)CC2)c1)c1ccc(C(F)(F)F)cn1
Target Entity: CXCR7 (Homo sapiens (Human))
Readout Value: 9.00
--
Smiles Record: CCC(C)(C)NC(=O)C1CCN(Cc2cccc(NC(=O)c3cccc(C(F)(F)F)[n+]3[O-])c2)CC1
Target Entity: CXCR7 (Homo sapiens (Human))
Readout Value: 9.00
--
Smiles Record: O=C(Nc1cccc(CN2CCC(C(=O)NC3CCCCC3)CC2)c1)c1ccncc1
Target Entity: CXCR7 (Homo sapiens (Human))
Readout Value: 7.40
--
Smiles Record: O=C(Nc1cccc(CN2CCC(C(=O)NC3CCCCC3)CC2)c1)c1ncccn1
Target Entity: CXCR7 (Homo sapiens (Human))
Readout Value: 7.44

Inquiry: Please state recorded pEC50 (tested on CXCR7 (Homo sapiens (Human))) of O=C(Nc1cccc(CN2CCC(C(=O)NC3CCCCC3)CC2)c1)c1cccnc1N1CCOCC1
Reply text: 6.43

* * *

This section presents molecules with their documented pEC50 values.
# Target Entity: UniProt P25106
# Experimental Details: PathHunter CHO-K1 CXCR7 b-arrestin assay (agonistic activity)
# Condition Set: PathHunter CHO-K1 CXCR7 b-arrestin cell line
// field semantics: pEC50 = negative decimal log of concentration (mol/L)

Previously resolved entries follow.
Molecule: CC(C)(C)NC(=O)C1CCN(Cc2cccc(NC(=O)c3cccc(C(F)(F)F)c3)c2)CC1 [Example 1.237]
pEC50: 8.40

Molecule: CC(C)(C)NC(=O)C1CCN(Cc2cccc(NC(=O)CC3Cc4ccccc4C3)c2)CC1 [Example 1.272]
pEC50: 8.70

Molecule: O=C(Nc1cccc(CN2CCC(C(=O)NC3CCCC3)CC2)c1)c1ccc2ncccc2c1 [Example 1.213]
pEC50: 8.52

Molecule: CCC(C)(C)NC(=O)C1CCN(Cc2cccc(NC(=O)c3ccc(C(F)(F)F)c[n+]3[O-])c2)CC1 [Example 1.347]
pEC50: 7.80

Molecule: O=C(Nc1cccc(CN2CCC(C(=O)NC3CCCC3)CC2)c1)c1ccc(F)cn1 [Example 1.207]
pEC50: 9.10

Inquiry: Look up pEC50 for this molecule: O=C(Nc1cccc(CN2CCC(C(=O)NC3CCCCC3)CC2)c1)c1cnc2cc[nH]c2c1 [Example 1.093]
Reply text: 6.83

Inquiry: Look up pEC50 for this molecule: O=C(CC1CCCCC1)Nc1cccc(CN2CCC(C(=O)NC3CCCCC3)CC2)c1 [Example 1.043]
Reply text: 8.05

Inquiry: Look up pEC50 for this molecule: O=C(Nc1cccc(CN2CCC(C(=O)NC3CCCCC3)CC2)c1)c1cnccn1 [Example 1.141]
Reply text: 8.70

Inquiry: Look up pEC50 for this molecule: O=C(Nc1cccc(CN2CCC(C(=O)NC3CCCCC3)CC2)c1)c1cncc2ccccc12 [Example 1.022]
Reply text: 7.01

Inquiry: Look up pEC50 for this molecule: CC(C)(C)NC(=O)C1CCN(Cc2cccc(NC(=O)c3cncc(C4CC4)c3)c2)CC1 [Example 1.240]
Reply text: 8.52

Inquiry: Look up pEC50 for this molecule: Cc1nc(C)c(CC(=O)Nc2cccc(CN3CCC(C(=O)NC(C)(C)C)CC3)c2)s1 [Example 1.262]
Reply text: 6.92

Inquiry: Look up pEC50 for this molecule: Cc1cc(C(=O)Nc2cccc(CN3CCC(C(=O)NC(C)(C)C)CC3)c2)c[n+]([O-])c1 [Example 4.022]
Reply text: 6.63

Inquiry: Look up pEC50 for this molecule: CC(c1cccc(NC(=O)c2ccc(Cl)cc2)c1)N1CCC(C(=O)NC2CCCCC2)CC1 (stereo not drawn) [Example 1.164]
Reply text: 8.10

Inquiry: Look up pEC50 for this molecule: COc1ccc(NC(=O)c2ccc(F)cc2)cc1CN1CCC(C(=O)NC(C)(C)C)CC1 [Example 1.298]
Reply text: 7.72

Inquiry: Look up pEC50 for this molecule: Cc1nc2cc(C(=O)Nc3cccc(CN4CCC(C(=O)NC(C)(C)C)CC4)c3)ccc2s1 [Example 1.354]
Reply text: 6.97

Inquiry: Look up pEC50 for this molecule: CC(C)(C)NC(=O)C1CCN(Cc2cccc(NC(=O)Cc3c(F)ccc(F)c3Cl)c2)CC1 [Example 1.254]
Reply text: 8.70

Inquiry: Look up pEC50 for this molecule: COc1ccccc1C(=O)Nc1cccc(CN2CCC(C(=O)NC3CCCCC3)CC2)c1 [Example 1.009]
Reply text: 7.77

Inquiry: Look up pEC50 for this molecule: Cc1ccc(C(=O)Nc2cccc(CN3CCC(C(=O)NC4CCCCC4)CC3)c2)cn1 [Example 1.064]
Reply text: 7.72

Inquiry: Look up pEC50 for this molecule: CC(C)(C)NC(=O)C1CCN(Cc2cccc(NC(=O)C3COc4ccccc43)c2)CC1 (racemic) [Example 1.266]
Reply text: 8.22

Inquiry: Look up pEC50 for this molecule: COc1cc(F)cc(C(=O)Nc2cccc(CN3CCC(C(=O)NC4CCCCC4)CC3)c2)c1 [Example 1.124]
Reply text: 8.30

Inquiry: Look up pEC50 for this molecule: CC(C)(C)NC(=O)C1CCN(Cc2cccc(NC(=O)C3(c4ccc(Cl)cc4)CC3)c2)CC1 [Example 1.310]
Reply text: 8.70

Inquiry: Look up pEC50 for this molecule: CCN(CC)c1ccc(C(=O)Nc2cccc(C(C)N3CCC(C(=O)NC4CCCCC4)CC3)c2)cn1 (racemic) [Example 1.196]
Reply text: 6.31

Inquiry: Look up pEC50 for this molecule: O=C(Nc1ccc(Cl)c(CN2CCC(C(=O)NC3CCCC3)CC2)c1)c1ccc(F)cn1 [Example 1.224]
Reply text: 9.40

Inquiry: Look up pEC50 for this molecule: Cc1ccnc(C(=O)Nc2cccc(CN3CCC(C(=O)NC4CCCCC4)CC3)c2)c1 [Example 1.082]
Reply text: 8.40

Inquiry: Look up pEC50 for this molecule: O=C(Nc1cccc(CN2CCC(C(=O)NC3CCCCC3)CC2)c1)c1cn[nH]c1 [Example 1.044]
Reply text: 5.91

Inquiry: Look up pEC50 for this molecule: Cc1ccc(C(=O)Nc2cccc(CN3CCC(C(=O)NC4CCCCC4)CC3)c2)c(C)c1 [Example 1.111]
Reply text: 8.40

Inquiry: Look up pEC50 for this molecule: CC(C)CN(C)C(=O)C1CCN(Cc2cccc(NC(=O)c3ccc(C(F)(F)F)cn3)c2)CC1 [Example 1.275]
Reply text: 8.52
